Data provenance is patent US20240059769A1.

# assayed system: hTSLP-His (human, UniProt Q969D9 29-159, limits assumed)
# test protocol: cell-based or functional assay
Labelling field: enter 1 (yes) if recorded IC50 [pM], STAT5 phosphorylation inhibition in MUTZ5 cells is less than 30 pM. Enter 0 (no) if it equals or exceeds that cut-off.

{"columns": ["binder", "label value"],
 "data": [
  ["BDG38.120 (antibody, V domains shown) VH: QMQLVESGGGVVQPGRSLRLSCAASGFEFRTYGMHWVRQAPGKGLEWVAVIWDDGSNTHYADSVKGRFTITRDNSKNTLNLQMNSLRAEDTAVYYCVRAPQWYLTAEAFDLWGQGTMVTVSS VL: SYILTQPPSVSVAPGETATITCGGNLIGARLVHWYQQKPGQAPVLVIYDDSDRPSRIPERFSGSNSGNTATLTISDVEAGDEADYYCQVWDYSSDHMVFGGGTKLTVL", "1 (yes)"],
  ["BDG38.077 (antibody, V domains shown, IgG1) VH: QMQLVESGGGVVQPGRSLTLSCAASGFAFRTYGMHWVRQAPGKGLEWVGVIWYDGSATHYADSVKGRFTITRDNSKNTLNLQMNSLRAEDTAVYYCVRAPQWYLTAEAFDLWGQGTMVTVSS VL: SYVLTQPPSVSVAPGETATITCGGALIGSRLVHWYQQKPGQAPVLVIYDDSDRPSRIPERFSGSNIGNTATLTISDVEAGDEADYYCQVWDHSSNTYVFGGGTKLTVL", "0 (no)"],
  ["BDG38.092 (antibody, V domains shown, IgG1) VH: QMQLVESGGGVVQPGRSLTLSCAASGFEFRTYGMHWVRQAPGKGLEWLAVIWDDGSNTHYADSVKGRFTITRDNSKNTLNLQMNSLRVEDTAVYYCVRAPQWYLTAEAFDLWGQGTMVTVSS VL: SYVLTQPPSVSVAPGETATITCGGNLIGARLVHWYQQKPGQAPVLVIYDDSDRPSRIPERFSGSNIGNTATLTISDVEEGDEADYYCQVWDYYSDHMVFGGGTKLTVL", "0 (no)"],
  ["BDG38.090 (antibody, V domains shown, IgG1) VH: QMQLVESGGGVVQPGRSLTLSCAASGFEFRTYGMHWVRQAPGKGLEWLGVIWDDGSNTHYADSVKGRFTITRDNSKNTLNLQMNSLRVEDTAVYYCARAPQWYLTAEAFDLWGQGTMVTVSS VL: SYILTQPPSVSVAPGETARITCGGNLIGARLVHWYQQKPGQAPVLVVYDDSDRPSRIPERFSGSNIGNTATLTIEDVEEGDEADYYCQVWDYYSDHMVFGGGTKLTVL", "0 (no)"]
]}
